Molecular target: GST-Chk1 enzyme (Homo sapiens, UniProt O14757)
Sequence (O14757 1-476): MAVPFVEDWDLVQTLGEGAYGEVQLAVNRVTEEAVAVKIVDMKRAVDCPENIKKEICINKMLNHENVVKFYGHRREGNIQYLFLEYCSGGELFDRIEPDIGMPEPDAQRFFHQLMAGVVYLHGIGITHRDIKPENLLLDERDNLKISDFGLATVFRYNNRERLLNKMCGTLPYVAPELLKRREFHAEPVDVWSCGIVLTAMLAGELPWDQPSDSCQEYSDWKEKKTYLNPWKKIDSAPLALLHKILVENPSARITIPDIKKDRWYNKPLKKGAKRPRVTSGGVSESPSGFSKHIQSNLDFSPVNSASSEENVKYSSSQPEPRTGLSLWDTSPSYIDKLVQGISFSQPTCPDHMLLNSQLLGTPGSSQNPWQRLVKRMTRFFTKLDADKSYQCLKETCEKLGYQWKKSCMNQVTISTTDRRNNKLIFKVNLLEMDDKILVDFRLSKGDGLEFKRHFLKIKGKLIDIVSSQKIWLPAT
Experiment: Chk1 kinase inhibition assay (33P phosphorylation of Chktide, filter plate)
Assay type: biochemical
Conditions: 0.01 mM ATP, 11 nM GST-Chk1, 40 minutes at 30° C.; read-out: Chk1 IC50
Entries and their IC50 values follow.

Record excerpt, results attached:
| COMPOUND | IC50 |
| --- | --- |
| CC(C)c1cnn2c(Nc3ccc(S(=O)(=O)N(C)C)cc3)cc(N3CCCC(C(=O)O)C3)nc12 (stereo not shown) | > 200 µM |
| CC(C)c1cnn2c(Nc3ccc(S(=O)(=O)N(C)C)cc3)cc(NC3CCCC(N)C3)nc12 (stereo not shown) | 2.2 µM |
| CN(C)S(=O)(=O)c1ccc(Nc2cc(N[C@H]3CC[C@H](N)CC3)nc3c(Br)cnn23)cc1Cl | 0.83 µM |
| CC(C)c1cnn2c(Nc3ccc(S(=O)(=O)N(C)C)cc3)cc(N3CCC(C(=O)O)CC3)nc12 | > 200 µM |
| CC(C)c1cnn2c(Nc3ccc(S(=O)(=O)N(C)C)cc3)cc(CN3CCC(N)CC3)nc12 | 8 µM |

[Q] # return recorded IC50 for entry NC(=O)c1ccc(Nc2cc(N[C@H]3CC[C@@H](N)CC3)nc3c(Br)cnn23)cc1
[A] 0.62 µM

[Q] # return recorded IC50 for entry CNCCNC(=O)c1cc(Nc2ccc(S(=O)(=O)N(C)C)cc2)n2ncc(C(C)C)c2n1
[A] 53 µM

[Q] # return recorded IC50 for entry CC(C)c1cnn2c(Nc3ccc(S(=O)(=O)N(C)C)cc3)cc(C(=O)N3CCC(N)CC3)nc12
[A] > 200 µM

[Q] # return recorded IC50 for entry CC(C)c1cnn2c(Nc3ccc(S(=O)(=O)NCCO)cc3)cc(Cl)nc12
[A] > 200 µM

[Q] # return recorded IC50 for entry CC(C)c1cnn2c(Nc3ccc(S(=O)(=O)N(C)C)cc3)cc(N3CCCCC3)nc12
[A] > 200 µM

[Q] # return recorded IC50 for entry CC(C)COc1cc(Nc2ccc(S(=O)(=O)N(C)C)cc2)n2ncc(C(C)C)c2n1
[A] > 200 µM

[Q] # return recorded IC50 for entry CC(C)c1cnn2c(Nc3ccc(S(=O)(=O)N(C)C)cc3)cc(NCC(C)(C)CN(C)C)nc12
[A] 18.2 µM

[Q] # return recorded IC50 for entry CN(C)S(=O)(=O)c1cccc(Nc2cc(Cl)nc3c(Br)cnn23)c1
[A] > 200 µM

[Q] # return recorded IC50 for entry CC(C)c1cnn2c(Nc3ccc(S(=O)(=O)N(C)C)cc3)cc(NCCCN3CCN(C)CC3)nc12
[A] > 200 µM

[Q] # return recorded IC50 for entry CC(C)c1cnn2c(Nc3ccc(S(C)(=O)=O)cc3)cc(OCCN(C)C)nc12
[A] > 200 µM

[Q] # return recorded IC50 for entry O=S(=O)(c1ccc(Nc2cc(Cl)nc3ccnn23)cc1)N1CCOCC1
[A] > 200 µM
